Target: Carboxylic ester hydrolase (Equus caballus, UniProt Q9N1N9)
Sequence (Q9N1N9 whole entry): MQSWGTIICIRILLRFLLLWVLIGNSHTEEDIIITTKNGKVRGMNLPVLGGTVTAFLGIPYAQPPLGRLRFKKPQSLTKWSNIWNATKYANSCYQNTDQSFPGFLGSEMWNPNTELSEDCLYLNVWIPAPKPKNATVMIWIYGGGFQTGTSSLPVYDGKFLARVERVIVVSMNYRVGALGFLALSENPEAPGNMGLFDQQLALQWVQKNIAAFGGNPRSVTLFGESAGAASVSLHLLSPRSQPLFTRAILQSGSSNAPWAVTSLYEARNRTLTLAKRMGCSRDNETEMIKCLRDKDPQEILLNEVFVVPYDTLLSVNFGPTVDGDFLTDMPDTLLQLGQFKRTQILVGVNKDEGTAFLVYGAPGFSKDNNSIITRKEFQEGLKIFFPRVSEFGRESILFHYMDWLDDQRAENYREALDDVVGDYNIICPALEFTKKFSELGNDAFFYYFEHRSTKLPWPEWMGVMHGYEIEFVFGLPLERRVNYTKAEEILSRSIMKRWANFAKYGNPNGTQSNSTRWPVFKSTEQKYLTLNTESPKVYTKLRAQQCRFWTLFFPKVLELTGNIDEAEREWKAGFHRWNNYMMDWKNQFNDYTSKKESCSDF
Mark True for IC50 under 2 µM, False if at or over.

O=C(NC(=S)Nc1ccccc1[N+](=O)[O-])c1cc2ccccc2oc1=O ... False
O=C(NC(=S)Nc1cccc(Cl)c1Cl)c1cc2ccccc2oc1=O ... False
O=C(NC(=S)NC1CCCCC1)c1cc2ccccc2oc1=O ... False
O=C(NC(=S)Nc1ccc(Cl)cc1)c1cc2ccccc2oc1=O ... False
O=C(NC(=S)Nc1cccc(Cl)c1)c1cc2ccccc2oc1=O ... True

Find out if reported IC50 for O=C(NC(=S)Nc1ccc(Cl)cc1Cl)c1cc2ccccc2oc1=O is less than 2 µM
False

Let us now turn to O=C(NC(=S)Nc1cccc(F)c1)c1cc2ccccc2oc1=O
False

Let us now turn to COc1cccc(NC(=S)NC(=O)c2cc3ccccc3oc2=O)c1
False

Let us now turn to COc1ccccc1NC(=S)NC(=O)c1cc2ccccc2oc1=O
True

Let us now turn to Cc1cccc(NC(=S)NC(=O)c2cc3ccccc3oc2=O)c1
False

Let us now turn to O=C(NC(=S)Nc1ccc(F)c(Cl)c1)c1cc2ccccc2oc1=O
True

Let us now turn to O=C(NC(=S)Nc1ccccc1Cl)c1cc2ccccc2oc1=O
False

----------
Target: Acetylcholinesterase (Electrophorus electricus, UniProt O42275)
Sequence (O42275 whole entry): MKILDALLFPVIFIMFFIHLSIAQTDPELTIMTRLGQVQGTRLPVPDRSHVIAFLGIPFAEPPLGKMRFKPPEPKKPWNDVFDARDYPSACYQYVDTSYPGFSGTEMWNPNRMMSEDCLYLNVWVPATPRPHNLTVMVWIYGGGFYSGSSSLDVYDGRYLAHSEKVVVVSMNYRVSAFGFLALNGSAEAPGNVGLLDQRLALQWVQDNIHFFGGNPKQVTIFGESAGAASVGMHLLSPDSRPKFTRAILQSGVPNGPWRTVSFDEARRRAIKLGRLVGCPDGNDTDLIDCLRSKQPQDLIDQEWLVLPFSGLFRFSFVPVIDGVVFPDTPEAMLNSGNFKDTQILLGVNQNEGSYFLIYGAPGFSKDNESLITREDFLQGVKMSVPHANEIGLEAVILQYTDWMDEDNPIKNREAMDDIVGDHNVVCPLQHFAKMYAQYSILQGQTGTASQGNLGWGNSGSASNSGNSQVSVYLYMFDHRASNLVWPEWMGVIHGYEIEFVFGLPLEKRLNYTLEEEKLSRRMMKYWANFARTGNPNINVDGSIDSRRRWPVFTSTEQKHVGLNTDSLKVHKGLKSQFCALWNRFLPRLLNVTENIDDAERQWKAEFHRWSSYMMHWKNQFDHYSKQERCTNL
quantity_name: log10(IC50) (log10 of the value in µM)
Quick note: numbers are log10 of IC50, with µM as the unit.

O=C(NC(=S)Nc1ccc(F)c(Cl)c1)c1cc2ccccc2oc1=O ... -0.12
O=C(NC(=S)Nc1ccc(Cl)cc1)c1cc2ccccc2oc1=O ... 0.71
O=C(NC(=S)Nc1cccc(Cl)c1)c1cc2ccccc2oc1=O ... -1.40
O=C(NC(=S)Nc1cccc(Cl)c1Cl)c1cc2ccccc2oc1=O ... 0.05

If you can, please state the reported log10(IC50) value of O=C(NC(=S)NC1CCCCC1)c1cc2ccccc2oc1=O .
0.84

Let us now turn to O=C(NC(=S)Nc1ccc(Cl)cc1Cl)c1cc2ccccc2oc1=O
0.79

Let us now turn to O=C(NC(=S)Nc1ccccc1[N+](=O)[O-])c1cc2ccccc2oc1=O
-0.64

----------
Molecular target: Acetylcholinesterase (Electrophorus electricus, UniProt O42275)
quantity_name: IC50 (µM)
Your answer should be a plain number; it is taken to be in µM.

Solved cases below.
COc1ccccc1NC(=S)NC(=O)c1cc2ccccc2oc1=O ... 13.3
Cc1cccc(NC(=S)NC(=O)c2cc3ccccc3oc2=O)c1 ... 0.86
COc1cccc(NC(=S)NC(=O)c2cc3ccccc3oc2=O)c1 ... 8.43

If you can, please state the reported IC50 value of O=C(NC(=S)Nc1cccc(F)c1)c1cc2ccccc2oc1=O .
17.2

Let us now turn to O=C(NC(=S)Nc1ccccc1Cl)c1cc2ccccc2oc1=O
7.28
